assay-target: YTHDC1 YTH domain (human, UniProt Q96MU7 345-509)
assay-comment: ITC

{"columns": ["binder", "Kd [nM]"],
 "data": [
  ["GGACU (ssRNA, m6A at position 3) [GG(m6A)CU]", 500]
]}

// data source = paper doi:10.1101/787937
